test: Determination of the partition coefficient n-octanol/water (OECD Guideline No. 117); format: physicochemical; conditions: pH 2.5, read-out: Log P pH 2.5
value_kind: chromatographic logP
Please state the value as a number alone, without comment.

Observe how each entry below is paired with its result.
* COC1c2c(-c3ccccc3)c(-c3ccc(Cl)cc3)c(CC(=O)O)n2CC1(C)C (centres unmarked) [Example 14] | 4.5
* CC1(C)Cc2c(-c3ccccc3)c(-c3ccc(Cl)cc3)c(CC(=O)O)n2C1 [ML 3000, reference compound] | 4.8

So what's the measured chromatographic logP for this one? COC1c2c(-c3ccccc3)c(-c3ccc(Cl)cc3)c(C)n2CC1(C)C (centres unmarked) [Example 16]
5.1

And the next one, CC1(C)Cn2cc(-c3ccc(Cl)cc3)c(-c3ccccc3)c2C1=O [Example 6] ?
5

And the next one, CC1(C)Cn2c(CC(=O)O)c(-c3ccc(Cl)cc3)c(-c3ccccc3)c2C1=O [Example 18] ?
3.3
